Origin of measurements: ChEMBL document CHEMBL3817775

target: Carbonic anhydrase 2 (Homo sapiens); assay: Binding affinity to GST-fused human carbonic anhydrase-2 expressed in Escherichia coli BL21 codon plus cells assessed as dissociation constant by SPR method
pKd reference
Convention used: pKd is expressed as -log10 of the molar concentration.

- SMILES_TEXT: "CCCc1ccc(S(N)(=O)=O)cc1"
  VALUE: 4.24

Below: the item to evaluate.
Enter measured pKd, system Carbonic anhydrase 2 (Homo sapiens), for the compound shown: `CCc1ccc(S(N)(=O)=O)cc1`
4.01

---

biological target: Carbonic anhydrase 2 (Homo sapiens, UniProt P00918); assay: Binding affinity to GST-fused human carbonic anhydrase-2 expressed in Escherichia coli BL21 codon plus cells assessed as steady state dissociation constant by SPR method
Below: a set of entries, each annotated with reported Kd.
Provide only the numeric value, understood in µM.

- SMILES_TEXT: "CCc1ccc(S(N)(=O)=O)cc1"
  UNITS_LABEL: "µM"
  Kd: 125

Query Kd for `CCCc1ccc(S(N)(=O)=O)cc1`
60.6
